- Test system: MCF7 breast
- EXPERIMENTAL_DETAILS: NCI tumour cell line growth inhibition, 48 h; in the data active = GI50 below about 0.43 µM; inactive = the rest
The reply should name one outcome from active, inactive

These recorded examples may help you get a feel for the data.
COMPOUND	GROUP_LABEL
CCCCCCCCCCCCCCCCCC[S+](C)CC (centres undefined)	inactive
COc1cc(N2CCC(N)CC2)ccc1Nc1ncc(Cl)c(-c2c[nH]c3ccccc23)n1	active
CCCCCCCCCC[C@H](O)[C@H]1CC[C@@H]([C@@H](O)CC[C@H](O)[C@@H]2CCC(CCCCCCC[C@@H](O)CC3=C[C@H](C)OC3=O)O2)O1 (some centres undefined)	inactive

In the following, a different compound is considered.
In: Dear colleague, could you share the recorded outcome for COC(=O)c1cccc(NC(=O)c2ccc(NC3=C(Cl)C(=O)N(Cc4ccccc4)C3=O)cc2)c1 when you have a moment?
Out: inactive
